SYSTEM_NAME: T1, 4H2588-bN
T1 chain: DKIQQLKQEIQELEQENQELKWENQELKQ
TEST_DESCRIPTION: two-hybrid library CCNG1;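 note: natural log of median RNA to DNA barcode read ratio; higher means stronger binding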
In plain terms, low interaction score, meaning strictly below -0.5, gives T, and everything else gives F.

Solved cases (2 shown):
BINDER | CLASS_LABEL
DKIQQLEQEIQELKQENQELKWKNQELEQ [4H2143-bN] | F
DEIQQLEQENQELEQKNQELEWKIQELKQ [4H182-bN] | T

Lab note: interaction score threshold -0.5. Does this binder come in strictly under it? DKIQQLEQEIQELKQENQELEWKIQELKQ [4H2134-bN] F

Record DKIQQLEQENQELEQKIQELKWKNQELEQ [4H2223-bN] : is its interaction score strictly below -0.5? F

Bench note: check whether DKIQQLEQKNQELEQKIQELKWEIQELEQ [4H2473-bN] shows interaction score below -0.5 T

In plain terms, does DKIQQLKQEIQELEQENQELKWENQELKQ [4H2588-bN] come in under -0.5 for interaction score? F

Is interaction score of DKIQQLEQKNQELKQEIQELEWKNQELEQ [4H2503-bN] strictly below -0.5? F

hey, is interaction score for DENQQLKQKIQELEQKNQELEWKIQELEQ [4H1845-bN] lower than -0.5 or not? T

Quick check: does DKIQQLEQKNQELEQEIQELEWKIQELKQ [4H2438-bN] have interaction score under -0.5? F
